Can you tell me electrical conductivity for the items I'm about to list?
Settings: 323.2 K; 101.33 kPa; Liquid; conductivity meter
Only the number, expressed in S/m, is required.

Query: electrical conductivity; subject: CCCCn1cc[n+](C)c1.F[P-](F)(F)(F)(F)F [1-butyl-3-methylimidazolium hexafluorophosphate]
0.308

Query: electrical conductivity; subject: CCCCn1cc[n+](C)c1.O=S(=O)([O-])C(F)(F)F [1-butyl-3-methylimidazolium trifluoromethanesulfonate]
0.521

Query: electrical conductivity; subject: CCCCn1cc[n+](C)c1.COS(=O)(=O)[O-] [1-butyl-3-methylimidazolium methyl sulfate]
0.522

Query: electrical conductivity; subject: CCCCn1cc[n+](C)c1.F[B-](F)(F)F [1-butyl-3-methylimidazolium tetrafluoroborate]
0.651

---

Conditions: 303.2 K; 101.33 kPa; Liquid; conductivity meter
Measured Parameter: electrical conductivity (S/m)
Only the number, expressed in S/m, is required.

Query: electrical conductivity; subject: CCCCn1cc[n+](C)c1.F[P-](F)(F)(F)(F)F [1-butyl-3-methylimidazolium hexafluorophosphate]
0.114

Query: electrical conductivity; subject: CCCCn1cc[n+](C)c1.O=S(=O)([O-])C(F)(F)F [1-butyl-3-methylimidazolium trifluoromethanesulfonate]
0.23

Query: electrical conductivity; subject: CCCCn1cc[n+](C)c1.COS(=O)(=O)[O-] [1-butyl-3-methylimidazolium methyl sulfate]
0.217

Query: electrical conductivity; subject: CCCCn1cc[n+](C)c1.F[B-](F)(F)F [1-butyl-3-methylimidazolium tetrafluoroborate]
0.295

---

Experiment: molar heat capacity at constant pressure
Settings: 333.2 K; 101.33 kPa; Liquid; Small sample (50 mg) DSC
Can you tell me molar heat capacity at constant pressure for the items I'm about to list?
Only the number, expressed in J/K/mol, is required.

Query: molar heat capacity at constant pressure; subject: CCCCn1cc[n+](C)c1.F[B-](F)(F)F [1-butyl-3-methylimidazolium tetrafluoroborate]
381.98

Query: molar heat capacity at constant pressure; subject: CCCCn1cc[n+](C)c1.COS(=O)(=O)[O-] [1-butyl-3-methylimidazolium methyl sulfate]
390.49

Query: molar heat capacity at constant pressure; subject: CCCCn1cc[n+](C)c1.F[P-](F)(F)(F)(F)F [1-butyl-3-methylimidazolium hexafluorophosphate]
429.12

Query: molar heat capacity at constant pressure; subject: CCCCn1cc[n+](C)c1.O=S(=O)([O-])C(F)(F)F [1-butyl-3-methylimidazolium trifluoromethanesulfonate]
455.5

---

Conditions: 313.2 K; 101.33 kPa; Liquid; conductivity meter
Can you tell me electrical conductivity for the items I'm about to list?
Only the number, expressed in S/m, is required.

Query: electrical conductivity; subject: CCCCn1cc[n+](C)c1.O=S(=O)([O-])C(F)(F)F [1-butyl-3-methylimidazolium trifluoromethanesulfonate]
0.358

Query: electrical conductivity; subject: CCCCn1cc[n+](C)c1.F[B-](F)(F)F [1-butyl-3-methylimidazolium tetrafluoroborate]
0.446

Query: electrical conductivity; subject: CCCCn1cc[n+](C)c1.F[P-](F)(F)(F)(F)F [1-butyl-3-methylimidazolium hexafluorophosphate]
0.193

Query: electrical conductivity; subject: CCCCn1cc[n+](C)c1.COS(=O)(=O)[O-] [1-butyl-3-methylimidazolium methyl sulfate]
0.348
